target: recombinant GSK3β kinase (Homo sapiens (Human), UniProt P49841); assay: GSK3β kinase assay (Ser/Thr 09 peptide Z-lyte, FRET); format: biochemical;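 note: FRET read-out as coumarin over fluorescein emission ratio, compounds incubated one hour at room temperature, IC50 from dose-response curve fit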
Sequence (P49841 whole entry): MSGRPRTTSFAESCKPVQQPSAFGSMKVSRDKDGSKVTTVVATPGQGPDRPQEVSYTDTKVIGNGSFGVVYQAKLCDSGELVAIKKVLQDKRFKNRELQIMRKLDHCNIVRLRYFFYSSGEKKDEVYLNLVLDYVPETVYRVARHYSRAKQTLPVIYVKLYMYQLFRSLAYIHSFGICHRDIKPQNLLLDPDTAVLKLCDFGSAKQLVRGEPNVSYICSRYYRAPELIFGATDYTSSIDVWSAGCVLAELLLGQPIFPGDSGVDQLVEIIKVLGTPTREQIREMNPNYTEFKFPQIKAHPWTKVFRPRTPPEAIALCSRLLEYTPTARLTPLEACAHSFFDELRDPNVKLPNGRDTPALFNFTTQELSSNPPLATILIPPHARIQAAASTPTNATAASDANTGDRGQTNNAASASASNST
measured.parameter: pEC50
// pEC50 here means minus log10 of the molar concentration (mol/L)

Record summary for [2H]c1nc([2H])c(-c2ccc3cnc(NC(=O)CN4CCCC4)cc3c2)c([2H])c1[2H] [Compound 60] : reported pEC50 = 6.39

Lab note: CN1CCC(Nc2cncc(-c3ccc4cnc(NC(=O)c5ccc(F)cc5)cc4c3)n2)CC1 [Compound 115] gave pEC50 of 5.07

Documented pEC50 of O=C(Nc1cc2cc(-c3cncc(N[C@H]4CCNC[C@@H]4F)n3)ccc2cn1)C1CC1 [Compound 111] : 8.40

Kindly note the recorded pEC50 for CN(C)[C@H]1CC[C@H](C(=O)Nc2cc3cc(-c4cnccn4)ccc3cn2)CC1 [Compound 70] , which is 6.12

pEC50 recorded for this molecule, CN1CCN(CC(=O)Nc2cc3cc(-c4cncc(F)c4)ccc3cn2)CC1 [Compound 20] , is 5.48

// sample [2H]c1nc([2H])c(-c2ccc3cnc(NC(=O)CN4CCN(C)CC4)cc3c2)c([2H])c1[2H] [Compound 61] , its pEC50 was 5.99

For O=C(Nc1cc2cc(-c3cncc(NC4CCNCC4)n3)ccc2cn1)C1CCC1 [Compound 105] the molecule record lists pEC50 as 7.25

get_value(item= CN1CCC(C(=O)Nc2cc3cc(-c4cncc(F)c4)ccc3cn2)CC1 [Compound 19] , readout=pEC50) returns 5.75

Lab note: [2H]C1([2H])OC([2H])([2H])C([2H])([2H])N(CC(=O)Nc2cc3cc(-c4cccnc4)ccc3cn2)C1([2H])[2H] [Compound 151] gave pEC50 of 6.10

pEC50 for CN1CCC(C(=O)Nc2cc3cc(-c4cncc(CO)c4)ccc3cn2)CC1 [Compound 31] is 6.16

Documented pEC50 of CN1CCN(C[C@H]2CC[C@H](C(=O)Nc3cc4cc(-c5cnccn5)ccc4cn3)CC2)CC1 [Compound 73] : 6.08

For CN1CCC(C(=O)Nc2cc3cc(-c4cnc(N)nc4)ccc3cn2)CC1 [Compound 65] the molecule record lists pEC50 as 5.05

Record O=C(CN1CCOCC1)Nc1cc2cc(-c3ccnnc3)ccc2cn1 [Compound 67] . Reported pEC50: 7.17

Memo: O=C(Nc1cc2cc(-c3cnccn3)ccc2cn1)[C@H]1CC[C@H](CN2CC(F)C2)CC1 [Compound 72] , reported pEC50: 5.91

The molecule listed as O=C(CN1CCOCC1)Nc1cc2cc(-c3cccnn3)ccc2cn1 [Compound 66] shows pEC50 equal to 6.07

The molecule listed as O=C(CCN1CCOCC1)Nc1cc2cc(-c3cncc(F)c3)ccc2cn1 [Compound 23] has a reported pEC50 of 6.22

Value of pEC50 reported for the molecule O=C(Nc1cc2cc(-c3cnccn3)ccc2cn1)[C@H]1CC[C@H](N2CCOCC2)CC1 [Compound 71] is 5.99

CC(C)(O)CN1CCCC(C(=O)Nc2cc3cc(-c4cnccn4)ccc3cn2)CC1 (stereo not shown) [Compound 82] has a reported pEC50 of 5.81

For reference, reported pEC50 for CC(C)Nc1cncc(-c2ccc3cnc(NC(=O)C4CNC4)cc3c2)n1 [Compound 86] stands at 7.77

Recorded pEC50 (molecule O=C(Nc1cc2cc(-c3cnccn3)ccc2cn1)[C@H]1C[C@H](N2CCOCC2)C1 [Compound 69] ): 6.55

Measured pEC50 of O=C(Nc1cc2cc(-c3cncc(CN4CCC(O)CC4)c3)ccc2cn1)C1CC1 [Compound 53] : 6.76

Entry [2H]c1nc([2H])c(-c2ccc3cnc(NC(=O)CN4CCOCC4)cc3c2)c([2H])c1[2H] [Compound 62] ; pEC50 = 6.34

Per the record, O=C(CN1CCOCC1)Nc1cc2cc(-c3cncc(F)c3)ccc2cn1 [Compound 22] has pEC50 of 5.75

// field: pEC50; key: CN1CCC(C(=O)Nc2cc3cc(-c4cnccn4)ccc3cn2)CC1 [Compound 75] ; value = 5.86

* * *

test system: SW480 colon carcinoma cells; test: Cell viability assay (CellTiter-Glo); type: cell-based, human; conditions: Homo sapiens, read-out: percent inhibition at 10 μM (given for EC50 >10 μM), 10 μM
measured.parameter: inhibition at 10 µM (%)
Record the value in %, omitting the unit from your answer.

Form: compound = CN1CCC(c2nc(C(=O)Nc3cc4cc(-c5cccnc5)ccc4cn3)co2)CC1 [Compound 142] ; inhibition at 10 µM = 16.9

// inhibition at 10 µM value for O=C(CN1CCCC1)Nc1cc2cc(-c3cnccn3)ccc2cn1 [Compound 74] : 125

Entry O=C(Nc1cc2cc(-c3cnccn3)ccc2cn1)C1CCN(C2COC2)CC1 [Compound 78] — recorded inhibition at 10 µM = 27.7

// CN1CCC(C(=O)Nc2cc3cc(-c4cnccn4)ccc3cn2)CC1 [Compound 75] : inhibition at 10 µM value = 44.5

Record CN1CCN(CC(=O)Nc2cc3cc(-c4cncc(F)c4)ccc3cn2)CC1 [Compound 20] . Reported inhibition at 10 µM: 37.2

The compound listed as [2H]c1nc([2H])c(-c2ccc3cnc(NC(=O)CN4CCN(C)CC4)cc3c2)c([2H])c1[2H] [Compound 61] shows inhibition at 10 µM equal to 21.6

Reported inhibition at 10 µM for CN1CCC(C(=O)Nc2cc3cc(-c4cnc(N)nc4)ccc3cn2)CC1 [Compound 65] was 47.1

Data point: Cc1cncc(-c2ccc3cnc(NC(=O)CN4CCOCC4)cc3c2)c1 [Compound 146] ; inhibition at 10 µM = 23.1

For Cc1nccn1CC(=O)Nc1cc2cc(-c3cccnc3)ccc2cn1 [Compound 14] the compound record lists inhibition at 10 µM as 47.6

* * *

tested on: SW480 colon carcinoma cells; experiment: Cell viability assay (CellTiter-Glo); type: cell-based, human; details: Homo sapiens, read-out: percent inhibition at 10 μM (given for EC50 >10 μM), 10 μM
measured.parameter: inhibition at 10 µM
Be sure to follow the number with its unit.

inhibition at 10 µM in this record for O=C(Nc1cc2cc(-c3cnccn3)ccc2cn1)[C@H]1C[C@H](N2CCOCC2)C1 [Compound 69] : 19.5%

What the record says about CN1CCC(C(=O)Nc2cc3cc(-c4ccccn4)ccc3cn2)CC1 [Compound 3] : inhibition at 10 µM is 50%

The measured inhibition at 10 µM associated with CN1CCN(CC(=O)Nc2cc3cc(-c4ccc(F)nc4)ccc3cn2)CC1 [Compound 21] reads 50%

Record O=C(CN1CCOCC1)Nc1cc2cc(-c3cncc(F)c3)ccc2cn1 [Compound 22] . Reported inhibition at 10 µM: 17.2%

What the record says about CN1CCN(CC(=O)Nc2cc3cc(-c4cccnc4)c(F)cc3cn2)CC1 [Compound 145] : inhibition at 10 µM is 18.8%

Lab note: O=C(Nc1cc2cc(-c3cncc(F)c3)ccc2cn1)[C@H]1C[C@H](N2CCOCC2)C1 [Compound 16] gave inhibition at 10 µM of 15.5%

The compound listed as CN1CCN(CC(=O)Nc2cc3cc(-c4cccnc4)ccc3cn2)CC1 [Compound 11] has a reported inhibition at 10 µM of 25.6%

Record O=C(CN1CCOCC1)Nc1cc2cc(-c3ccnnc3)ccc2cn1 [Compound 67] , field inhibition at 10 µM: 19.2%

Record Cc1ncc(-c2ccc3cnc(NC(=O)C4CCN(C)CC4)cc3c2)cn1 [Compound 63] , field inhibition at 10 µM: 7.4%

Record CN(C)[C@H]1CC[C@H](C(=O)Nc2cc3cc(-c4cnccn4)ccc3cn2)CC1 [Compound 70] . Reported inhibition at 10 µM: 35.3%

For this compound ( [2H]C1([2H])OC([2H])([2H])C([2H])([2H])N(CC(=O)Nc2cc3cc(-c4cccnc4)ccc3cn2)C1([2H])[2H] [Compound 151] ), measured inhibition at 10 µM is 24.6%

Looking up O=C(Nc1cc2cc(-c3cnccn3)ccc2cn1)[C@H]1CC[C@H](N2CCOCC2)CC1 [Compound 71] , I see its inhibition at 10 µM listed as 14.6%

// recorded inhibition at 10 µM for O=C(CN1CCCC1)Nc1cc2cc(-c3cncc(F)c3)ccc2cn1 [Compound 18] : 22.2%

Reported inhibition at 10 µM of CNC(=O)c1cncc(-c2ccc3cnc(NC(=O)C4CCN(C)CC4)cc3c2)c1 [Compound 58] : 30.9%

// inhibition at 10 µM value for CC(C)CN1CCCC(C(=O)Nc2cc3cc(-c4cnccn4)ccc3cn2)CC1 (centres unmarked) [Compound 81] : 21.3%

Form: compound = O=C(Nc1cc2cc(-c3cnccn3)ccc2cn1)[C@H]1CC[C@H](CN2CC(F)C2)CC1 [Compound 72] ; inhibition at 10 µM = 35.6%

Data point: CN1CCCN(CC(=O)Nc2cc3cc(-c4cccnc4)ccc3cn2)CC1 [Compound 12] ; inhibition at 10 µM = 39.3%
